Measured pIC50, listed per entry for reference.
- system_under_test: purified human recombinant ATM (ataxia telangiectasia mutated), full length (Homo sapiens (Human))
- method_description: ATM kinase assay - determination of ATM inhibition (IC50 ATM), TR-FRET
- Assay type: biochemical
- condition_set: 10 μM ATP, substrate p53
pIC50: −log10 of the molar value.

{"compound": "COc1cc2ncc3c(c2cc1-c1ccc2nc(C)[nH]c2c1)n(-c1cn(C)nc1C)c(=O)n3C [compound 132]", "pIC50": "> 9.00"}
{"compound": "CCc1cncc(C)c1-n1c(=O)n(C)c2cnc3cc(OC)c(-c4cnn(C)c4)cc3c21 [Compound Example 54]", "pIC50": "> 8.00"}
{"compound": "CCn1cc(-c2cc3c(cc2OC)ncc2c3n(-c3c(F)cncc3OC)c(=O)n2C)c(C)n1 [compound 142]", "pIC50": "> 9.00"}
{"compound": "COc1cc2ncc3c(c2cc1-c1cnn(C)c1)n(-c1ccc(F)cn1)c(=O)n3C [Compound Example 50]", "pIC50": "> 8.00"}
{"compound": "COc1cc2ncc3c(c2cc1-c1cnn(C)c1)n(-c1ccc2ccccc2n1)c(=O)n3C [compound 68]", "pIC50": "> 8.00"}
{"compound": "CCc1cncc(F)c1-n1c(=O)n(C)c2cnc3cc(OC)c(-c4cnn(C)n4)cc3c21 [compound 112]", "pIC50": "> 8.00"}
{"compound": "COc1cc2ncc3[nH]c(=O)n(-c4c(F)cncc4OC)c3c2cc1-c1cnn(C)c1 [compound 116]", "pIC50": "> 8.00"}
{"compound": "COc1cc2ncc3c(c2cc1-c1cnn(C)c1)n(-c1ncc(F)cn1)c(=O)n3C [Compound Example 36]", "pIC50": "> 8.00"}

---

- system_under_test: purified human recombinant ATM (ataxia telangiectasia mutated), full length (Homo sapiens (Human), UniProt Q13315)
- Sequence (Q13315 whole entry, change not shown): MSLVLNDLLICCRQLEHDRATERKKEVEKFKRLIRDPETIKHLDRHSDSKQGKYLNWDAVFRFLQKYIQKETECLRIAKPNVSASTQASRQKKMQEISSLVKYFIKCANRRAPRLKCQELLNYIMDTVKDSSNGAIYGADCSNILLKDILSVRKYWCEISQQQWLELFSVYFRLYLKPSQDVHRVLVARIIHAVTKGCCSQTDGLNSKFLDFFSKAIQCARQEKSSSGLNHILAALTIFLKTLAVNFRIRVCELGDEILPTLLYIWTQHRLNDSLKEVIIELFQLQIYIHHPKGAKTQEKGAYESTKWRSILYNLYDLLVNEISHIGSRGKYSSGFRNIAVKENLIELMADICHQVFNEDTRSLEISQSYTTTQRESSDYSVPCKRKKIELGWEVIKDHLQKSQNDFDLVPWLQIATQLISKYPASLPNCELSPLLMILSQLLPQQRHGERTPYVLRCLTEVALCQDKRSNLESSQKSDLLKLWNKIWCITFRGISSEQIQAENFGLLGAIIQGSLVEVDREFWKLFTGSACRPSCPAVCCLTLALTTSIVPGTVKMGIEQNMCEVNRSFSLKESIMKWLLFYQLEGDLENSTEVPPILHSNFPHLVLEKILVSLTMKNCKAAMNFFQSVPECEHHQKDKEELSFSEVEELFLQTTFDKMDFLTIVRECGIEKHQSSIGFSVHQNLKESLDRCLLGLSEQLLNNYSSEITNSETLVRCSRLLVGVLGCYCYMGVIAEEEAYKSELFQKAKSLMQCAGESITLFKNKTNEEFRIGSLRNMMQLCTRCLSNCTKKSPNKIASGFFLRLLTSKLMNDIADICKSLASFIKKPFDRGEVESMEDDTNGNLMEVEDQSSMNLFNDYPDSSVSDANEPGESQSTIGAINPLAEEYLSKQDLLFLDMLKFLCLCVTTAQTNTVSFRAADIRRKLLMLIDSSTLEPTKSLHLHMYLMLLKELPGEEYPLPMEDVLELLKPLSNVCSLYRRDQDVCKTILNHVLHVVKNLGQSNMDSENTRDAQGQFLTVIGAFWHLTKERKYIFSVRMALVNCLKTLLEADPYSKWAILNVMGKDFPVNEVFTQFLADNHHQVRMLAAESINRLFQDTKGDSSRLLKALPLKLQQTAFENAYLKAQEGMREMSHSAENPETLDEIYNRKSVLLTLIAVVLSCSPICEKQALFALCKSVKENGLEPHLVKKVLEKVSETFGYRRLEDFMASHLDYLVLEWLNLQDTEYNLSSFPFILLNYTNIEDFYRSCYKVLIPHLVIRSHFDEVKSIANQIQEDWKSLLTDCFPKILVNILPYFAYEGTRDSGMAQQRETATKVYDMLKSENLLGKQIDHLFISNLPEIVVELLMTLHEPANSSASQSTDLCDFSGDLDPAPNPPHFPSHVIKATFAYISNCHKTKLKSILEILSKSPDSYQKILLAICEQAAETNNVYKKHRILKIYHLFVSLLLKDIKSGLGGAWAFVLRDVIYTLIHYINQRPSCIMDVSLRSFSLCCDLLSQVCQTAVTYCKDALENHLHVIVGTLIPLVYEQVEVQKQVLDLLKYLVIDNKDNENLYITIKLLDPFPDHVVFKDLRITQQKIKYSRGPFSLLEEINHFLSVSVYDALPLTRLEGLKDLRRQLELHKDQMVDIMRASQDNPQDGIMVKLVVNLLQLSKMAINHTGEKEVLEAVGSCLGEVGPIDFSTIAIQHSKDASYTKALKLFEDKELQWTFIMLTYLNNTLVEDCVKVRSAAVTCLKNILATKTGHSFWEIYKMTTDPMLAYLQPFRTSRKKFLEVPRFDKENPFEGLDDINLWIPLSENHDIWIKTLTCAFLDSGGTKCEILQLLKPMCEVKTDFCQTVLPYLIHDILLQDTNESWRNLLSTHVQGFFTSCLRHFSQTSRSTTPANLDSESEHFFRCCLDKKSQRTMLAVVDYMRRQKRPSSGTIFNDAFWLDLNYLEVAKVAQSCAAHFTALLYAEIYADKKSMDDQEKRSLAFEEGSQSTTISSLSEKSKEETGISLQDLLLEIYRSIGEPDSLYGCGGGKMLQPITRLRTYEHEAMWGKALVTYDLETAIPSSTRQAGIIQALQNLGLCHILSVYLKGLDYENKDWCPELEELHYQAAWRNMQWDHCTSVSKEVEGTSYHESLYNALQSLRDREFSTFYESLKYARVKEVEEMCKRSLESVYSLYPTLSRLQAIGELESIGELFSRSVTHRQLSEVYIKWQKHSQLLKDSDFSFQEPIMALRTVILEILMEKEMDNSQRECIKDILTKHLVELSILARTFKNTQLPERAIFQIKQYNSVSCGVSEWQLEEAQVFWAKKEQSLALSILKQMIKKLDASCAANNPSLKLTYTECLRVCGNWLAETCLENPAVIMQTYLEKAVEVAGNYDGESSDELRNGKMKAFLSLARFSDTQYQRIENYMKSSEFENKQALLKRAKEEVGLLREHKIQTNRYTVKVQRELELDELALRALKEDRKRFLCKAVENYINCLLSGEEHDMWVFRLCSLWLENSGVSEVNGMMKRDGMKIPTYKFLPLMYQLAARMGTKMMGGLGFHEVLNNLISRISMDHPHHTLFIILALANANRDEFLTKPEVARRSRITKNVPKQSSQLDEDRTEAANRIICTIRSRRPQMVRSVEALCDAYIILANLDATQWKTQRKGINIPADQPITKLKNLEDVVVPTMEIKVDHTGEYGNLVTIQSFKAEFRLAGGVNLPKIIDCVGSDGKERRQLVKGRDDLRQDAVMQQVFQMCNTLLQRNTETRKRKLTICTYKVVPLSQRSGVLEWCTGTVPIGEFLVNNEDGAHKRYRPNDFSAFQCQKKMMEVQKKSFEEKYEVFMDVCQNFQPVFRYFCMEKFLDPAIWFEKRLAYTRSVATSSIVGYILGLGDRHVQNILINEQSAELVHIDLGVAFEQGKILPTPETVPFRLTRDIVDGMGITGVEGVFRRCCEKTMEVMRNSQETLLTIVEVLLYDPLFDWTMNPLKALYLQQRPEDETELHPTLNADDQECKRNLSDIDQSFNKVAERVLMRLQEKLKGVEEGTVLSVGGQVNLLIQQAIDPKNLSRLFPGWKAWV
- method_description: ATM kinase assay - determination of ATM inhibition (IC50 ATM), TR-FRET
- Format: biochemical
- condition_set: 10 μM ATP, substrate p53
pIC50: −log10 of the molar value. Structures can show the parent of a compound that is named as a salt.
observation_type: pIC50

{"compound": "C=CCOc1cnc(-n2c(=O)n(C)c3cnc4cc(OC)c(-c5cnn(C)c5)cc4c32)c(F)c1 [compound 204]", "meas_value": "> 9.00"}
{"compound": "CCn1cc(-n2c(=O)n(C)c3cnc4cc(OC)c(-c5cnn(C)c5)cc4c32)c(C)n1 [compound 130]", "meas_value": "> 9.00"}
{"compound": "COc1cc2ncc3c(c2cc1-c1cnn(C)c1)n(-c1ncncc1F)c(=O)n3C [Compound Example 31, hydrochloride]", "meas_value": "> 8.00"}
{"compound": "COc1cnc(-n2c(=O)n(C)c3cnc4cc(OC)c(-c5c[nH]nc5C)cc4c32)c(F)c1 [compound 122]", "meas_value": "> 9.00"}
{"compound": "COc1ccc(-c2cc3c(cc2OC)ncc2c3n(-c3c(F)cncc3OC)c(=O)n2C)cn1 [compound 137]", "meas_value": "> 8.00"}
{"compound": "COc1cc2ncc3c(c2cc1-c1cn[nH]c1)n(-c1c(F)cncc1F)c(=O)n3C [Compound Example 2]", "meas_value": "> 9.00"}
{"compound": "COc1cc2ncc3c(c2cc1-c1cn[nH]c1)n(-c1ncccc1F)c(=O)n3C [Compound Example 7]", "meas_value": "> 9.00"}

---

These records show pIC50 for PI3K (p120γ) (human) (Homo sapiens (Human)).
pIC50: −log10 of the molar value.
observation_type: pIC50

{"compound": "COc1cc2ncc3c(c2cc1-c1cnn(C)c1)n(-c1cncnc1)c(=O)n3C [Compound Example 57]", "meas_value": "< 4.52"}
{"compound": "COc1cc2ncc3c(c2cc1-c1cnn(C)c1)n(-c1c(C)cncc1F)c(=O)n3C [Compound Example 18]", "meas_value": "< 5.30"}
{"compound": "COc1cc2ncc3c(c2cc1-c1cnn(C)c1)n(-c1c(F)cncc1C#N)c(=O)n3C [Compound Example 44]", "meas_value": "< 4.52"}
{"compound": "CCn1cc(-c2cc3c(cc2OC)ncc2c3n(-c3ccncc3F)c(=O)n2C)cn1 [Compound Example 33]", "meas_value": "< 4.52"}
{"compound": "CCc1cncc(F)c1-n1c(=O)n(C)c2cnc3cc(OC)c(-c4cnn(CC)c4)cc3c21 [Compound Example 25]", "meas_value": "< 4.52"}
{"compound": "CCn1cc(-c2cc3c(cc2OC)ncc2c3n(-c3cn(C)nc3C)c(=O)n2C)cn1 [Compound Example 21]", "meas_value": "< 3.52"}
{"compound": "COc1cc2ncc3c(c2cc1-c1cn[nH]c1)n(-c1csc(C)n1)c(=O)n3C [Compound Example 30]", "meas_value": "< 4.52"}

---

pIC50: −log10 of the molar value.
These records show pIC50 for mTOR (human) (Homo sapiens (Human)).

{"compound": "COc1cc2ncc3c(c2cc1-c1cn[nH]c1)n(-c1ccncc1OC)c(=O)n3C [Compound Example 32]", "pIC50": "< 5.00"}
{"compound": "COc1cc2ncc3c(c2cc1-c1cnn(C)c1)n(-c1cnn(C)c1)c(=O)n3C [Compound Example 23]", "pIC50": "< 4.70"}
{"compound": "COc1cc2ncc3c(c2cc1-c1cn[nH]c1)n(-c1ccnn1C)c(=O)n3C [Compound Example 41]", "pIC50": "< 5.00"}
{"compound": "CCc1cncc(C)c1-n1c(=O)n(C)c2cnc3cc(OC)c(-c4cnn(C)c4)cc3c21 [Compound Example 54]", "pIC50": "< 4.52"}

---

- system_under_test: purified human recombinant ATM (ataxia telangiectasia mutated), full length (Homo sapiens (Human), UniProt Q13315)
- method_description: ATM kinase assay - determination of ATM inhibition (IC50 ATM), TR-FRET
- Type: biochemical

{"compound": "COc1cc2ncc3c(c2cc1-c1cnn(C)c1)n(-c1ncc(F)cn1)c(=O)n3C [Compound Example 36]", "IC50": "< 1 nM"}
{"compound": "COc1cc2ncc3c(c2cc1-c1cn[nH]c1)n(-c1c(C)cncc1F)c(=O)n3C [Compound Example 8]", "IC50": "< 1 nM"}
{"compound": "COc1cc2ncc3c(c2cc1-c1cnn(C)c1)n(-c1cnn(C)c1)c(=O)n3C [Compound Example 23]", "IC50": "< 10 nM"}

---

- system_under_test: purified human recombinant ATM (ataxia telangiectasia mutated), full length (Homo sapiens (Human), UniProt Q13315)
- method_description: ATM kinase assay - determination of ATM inhibition (IC50 ATM), TR-FRET
- Format: biochemical
- condition_set: 10 μM ATP, substrate p53
pIC50: −log10 of the molar value.

{"molecule": "CCc1cncc(C)c1-n1c(=O)n(C)c2cnc3cc(OC)c(-c4cnn(CC)c4)cc3c21 [compound 61]", "pIC50": "> 8.00"}
{"molecule": "COc1cc2ncc3c(c2cc1-c1cnn(C)c1)n(-c1ccncc1F)c(=O)n3C [Compound Example 35]", "pIC50": "> 8.00"}
{"molecule": "COc1cc2ncc3c(c2cc1-c1cnn[nH]1)n(-c1c(F)cncc1OC)c(=O)n3C [compound 134]", "pIC50": "> 9.00"}
{"molecule": "COc1cc2ncc3c(c2cc1-c1cnn(C)c1)n(-c1cnn(C)c1)c(=O)n3C [Compound Example 23]", "pIC50": "> 8.00"}

---

- system_under_test: purified human recombinant ATM (ataxia telangiectasia mutated), full length (Homo sapiens (Human), UniProt Q13315)
- method_description: ATM kinase assay - determination of ATM inhibition (IC50 ATM), TR-FRET
- Type: biochemical
- condition_set: 10 μM ATP, substrate p53

{"smiles_text": "COc1cc2ncc3[nH]c(=O)n(-c4c(F)cncc4OC)c3c2cc1-c1cn(C)nc1C", "IC50": "< 1 nM"}
{"smiles_text": "COc1cc2ncc3c(c2cc1-c1cnn(C)c1)n(-c1ccc(C#N)cn1)c(=O)n3C", "IC50": "< 10 nM"}
{"smiles_text": "COc1cc2ncc3c(c2cc1-c1cc(C)[nH]n1)n(-c1ncccc1F)c(=O)n3C", "IC50": "< 10 nM"}
{"smiles_text": "COc1cc2ncc3c(c2cc1-c1cnn(C)c1)n(-c1ccncc1C#N)c(=O)n3C", "IC50": "< 50 nM"}
{"smiles_text": "COc1cc2ncc3c(c2cc1-c1cnn(C)c1)n(-c1ncccn1)c(=O)n3C", "IC50": "< 10 nM"}
{"smiles_text": "COc1cc2ncc3c(c2cc1-c1cn[nH]c1)n(-c1ccnn1C)c(=O)n3C", "IC50": "< 10 nM"}
{"smiles_text": "COc1cnc(-n2c(=O)n(C)c3cnc4cc(OC)c(-c5cn(C)nc5C)cc4c32)c(F)c1", "IC50": "< 1 nM"}
{"smiles_text": "COc1cc2ncc3c(c2cc1-c1cnn(C)c1)n(-c1ncc(OCCO)cc1F)c(=O)n3C", "IC50": "< 1000 nM"}
{"smiles_text": "CCc1cnccc1-n1c(=O)n(C)c2cnc3cc(OC)c(-c4cnn(CC)c4)cc3c21", "IC50": "< 10 nM"}
{"smiles_text": "COc1cc2ncc3c(c2cc1-c1cnn(C)c1)n(-c1ncccc1F)c(=O)n3C", "IC50": "< 1 nM"}
{"smiles_text": "COc1cc2ncc3[nH]c(=O)n(-c4ncc(F)cc4F)c3c2cc1-c1cnn(C)c1", "IC50": "< 1 nM"}
{"smiles_text": "COc1cc2ncc3c(c2cc1-c1cn(C)nn1)n(-c1ncccc1F)c(=O)n3C", "IC50": "< 10 nM"}
